- Tested on: wild-type zebrafish larvae
- Experiment Summary: Maximum tolerated concentration (MTC) determination in zebrafish larvae
- Type: in vivo, Danio rerio
- Run Parameters: after 24-hour exposure; Table 3
Use 1 when the recorded Maximum Tolerated Concentration is no lower than 10 µM; use -1 when it is lower.

Record excerpt, results attached:
- Compound: "COc1c(F)cc(CN2C(=O)C(=O)c3ccccc32)cc1F"
  Class Assignment: 1
- Compound: "CCCCc1oc2ccccc2c1C(=O)c1ccc(OC)cc1"
  Class Assignment: -1
- Compound: "CCCCc1oc2ccccc2c1C(=O)c1ccc(O)cc1 [Compound 4, reference compound]"
  Class Assignment: -1
- Compound: "CCCCc1oc2ccccc2c1C(=O)c1cc(I)c(OC)c(I)c1"
  Class Assignment: 1
- Compound: "CCCCc1oc2ccccc2c1C(=O)c1cc(I)c(O)c(I)c1 [Compound 3, reference compound]"
  Class Assignment: -1
- Compound: "COc1cc(CN2C(=O)C(=O)c3ccccc32)cc(OC)c1OC"
  Class Assignment: 1

[Q] Check if Maximum Tolerated Concentration >= 10 µM (inclusive). Item: "COc1ccc(CN2C(=O)C(=O)c3ccccc32)cc1F"
[A] 1

[Q] Check if Maximum Tolerated Concentration >= 10 µM (inclusive). Item: "COc1c(Cl)cc(CN2C(=O)C(=O)c3ccccc32)cc1Cl"
[A] 1

[Q] Check if Maximum Tolerated Concentration >= 10 µM (inclusive). Item: "COc1c(I)cc(CN2C(=O)C(=O)c3ccccc32)cc1I"
[A] 1

[Q] Check if Maximum Tolerated Concentration >= 10 µM (inclusive). Item: CCCCc1oc2ccccc2c1C(=O)c1cc(I)c(OCC[N+](CC)(CC)CC)c(I)c1 [Compound 2, N-ethylamiodarone, reference compound]
[A] -1

[Q] Check if Maximum Tolerated Concentration >= 10 µM (inclusive). Item: "COc1ccc(CN2C(=O)C(=O)c3ccccc32)cc1Br"
[A] 1
